These entries and their values trace back to ChEMBL document CHEMBL1136911.

Give measured Papp A→B for each item. Keep answers brief.
- assay details: Apparent permeability from apical to basolateral side of MDCK cells expressing MDR1
- Format: ADME, cell-based, Canis lupus familiaris
- experimental context: dog, MDCK-MDR1
One number for each entry, in ×10⁻⁶ cm/s.

Example entries begin here.
molecule=CS(=O)(=O)Nc1cccc(-c2ccccc2[C@@H]2Cc3nccn3C2)c1 numeric_value=11
molecule=c1cncc(-c2ccccc2[C@@H]2Cc3nccn3C2)c1 numeric_value=44
molecule=CNC(=O)c1cccc(-c2ccccc2[C@@H]2Cc3nccn3C2)c1 numeric_value=16
molecule=N#Cc1ccccc1[C@@H]1Cc2nccn2C1 numeric_value=35

Next molecule, Papp A→B to be filled in.
Consider the molecule Fc1ccc(-c2cncnc2)c(C2Cc3nccn3C2)c1 (stereo not given) . State its measured Papp A→B.
34
